Would you kindly list GI50 for each of these molecules?
- Test system: SNB-78
- test: NCI tumour cell line growth inhibition, 48 h
The source made the active and inactive calls. Rule as the data show it: active = GI50 up to about 1.1 µM and inactive = higher.

Data request, read-out GI50, for `O=C(CSc1nnc(-c2ccc(/N=C\c3ccc(Cl)cc3)cc2)o1)Nc1cccc([N+](=O)[O-])c1` > 100 µM (inactive)

Data request, read-out GI50, for O=C(c1ccccc1)C(c1ccccc1)C1(O)C(=O)Nc2ccc(Br)cc21 (centres undefined) > 100 µM (inactive)

Data request, read-out GI50, for COC(=O)/C(=N\NC(=O)c1ccccc1O)C(C#N)c1ccc(Cl)cc1 (centres undefined) 26.2 µM (inactive)

Data request, read-out GI50, for `FC(F)(F)c1ccccc1/C=N/C12CC3CC(CC(C3)C1)C2` > 100 µM (inactive)

Data request, read-out GI50, for Cc1ccccc1C(C#N)C(=O)C(=O)Nc1nc([N+](=O)[O-])cs1 (centres undefined) > 100 µM (inactive)

Data request, read-out GI50, for `O=C1CCCCN1` > 1120 µM (inactive)

Data request, read-out GI50, for `CS(=O)(=O)OCCN(CCOS(C)(=O)=O)c1ccc(/C=N/c2ccc3oc(=O)ccc3c2)cc1` 2.12 µM (inactive)

Data request, read-out GI50, for C=CC(C)(C)[C@@]12CC3C(=O)N[C@@H](Cc4ccccc4)C(=O)N3[C@@H]1N(C(C)=O)c1ccccc12 (some centres undefined) > 100 µM (inactive)

Data request, read-out GI50, for O=c1[nH]c(=O)n(C2OC(COP(=O)(O)OP(=O)(O)OC3OC(CO)C(O)C(O)C3O)C(O)C2O)cc1F (centres undefined) 0.366 µM (active)

* * *

- System: OVCAR-8
- test: NCI tumour cell line growth inhibition, 48 h
Calls of active or inactive are those of the source. Rule as the data show it: active = GI50 up to about 1.1 µM and inactive = higher.
Would you kindly list GI50 for each of these compounds?

Param readout = GI50; param system = OVCAR-8; param query = `O=S1(=O)c2cc(S(=O)(=O)n3ccnc3)ccc2NC2=NCCCN21` ; response: value 27.2 µM (inactive)

Param readout = GI50; param system = OVCAR-8; param query = `O=C(CCc1ccc(O)c(O)c1)NCCc1cc(OCc2ccccc2)cc(OCc2ccccc2)c1` ; response: value 13.6 µM (inactive)

Param readout = GI50; param system = OVCAR-8; param query = `COc1ccccc1/[N+]([O-])=C/c1ccccc1OC(=S)S` ; response: value 21.7 µM (inactive)

Param readout = GI50; param system = OVCAR-8; param query = `CN(C)c1ccc(/N=N\c2cccc3ccoc23)cc1` ; response: value > 78 µM (inactive)

Param readout = GI50; param system = OVCAR-8; param query = `CN(C)C(=S)Nc1nnc(NC23CC4CC(CC(C4)C2)C3)s1.[O-][Cl+3]([O-])([O-])O` ; response: value 26.7 µM (inactive)

Param readout = GI50; param system = OVCAR-8; param query = `CCCCCCOC(=O)/C=C/[C@]1(CO)C/C(=C/CC(C(C)C)C(C)C)C(=O)O1` ; response: value 16.7 µM (inactive)

Param readout = GI50; param system = OVCAR-8; param query = `O=C(Nc1ccccc1)c1cc2c(cc1Cl)Sc1nccn1S2(=O)=O` ; response: value 58.2 µM (inactive)

Param readout = GI50; param system = OVCAR-8; param query = `COC1=CC(=O)C(Br)=CC1=O` ; response: value 26.9 µM (inactive)

Param readout = GI50; param system = OVCAR-8; param query = `Cc1ccc(S(=O)(=O)n2cc(C#N)c(C#N)c2)cc1` ; response: value 31.8 µM (inactive)

Param readout = GI50; param system = OVCAR-8; param query = COc1cc(S(=O)(=O)Nc2ccc(-c3csc(N4C(=O)CSC4c4ccccc4O)n3)cc2)ccc1Cl (stereo not drawn) ; response: value 55.1 µM (inactive)

Param readout = GI50; param system = OVCAR-8; param query = CC1=CCCC(OC(N)=O)C1 (stereo not drawn) ; response: value > 100 µM (inactive)

Param readout = GI50; param system = OVCAR-8; param query = `NC12CC3CC4C1CC1CC2C(C3)C4(N)C1` ; response: value > 100 µM (inactive)

Param readout = GI50; param system = OVCAR-8; param query = `COc1ccc(/C=C(\C(=O)OCC(C)C)c2ccc(OC)c(OC)c2)cc1OC` ; response: value > 100 µM (inactive)

Param readout = GI50; param system = OVCAR-8; param query = `CO/C(N)=C(C#N)/N=C/c1ccc2ccccc2c1` ; response: value 72.3 µM (inactive)

Param readout = GI50; param system = OVCAR-8; param query = O=C1CSC(C(/N=N/c2ccc(Cl)cc2)c2nc3ccccc3[nH]2)=N1 (stereo not drawn) ; response: value 82.8 µM (inactive)

Param readout = GI50; param system = OVCAR-8; param query = `COc1ccc2nc3ccccc3c(NCCCCN(CCCl)CCCl)c2c1` ; response: value 0.0218 µM (active)

Param readout = GI50; param system = OVCAR-8; param query = `O=C1Nc2ccccc2/C1=N/Nc1nc(-c2cccc([N+](=O)[O-])c2)cs1` ; response: value 15.9 µM (inactive)

Param readout = GI50; param system = OVCAR-8; param query = COc1ccc(N[S+]([O-])CCCc2ccccc2)cc1 (stereo not drawn) ; response: value > 100 µM (inactive)

Param readout = GI50; param system = OVCAR-8; param query = `CO[C@]12S[C@@H]3CCCC[C@@]31C(C)(C)C(=O)N2c1ccccc1` ; response: value 30.1 µM (inactive)

Param readout = GI50; param system = OVCAR-8; param query = `O=C(O)c1ccc(N2C=[N+]3C(=Nc4ccccc43)C2)cc1` ; response: value > 100 µM (inactive)

Param readout = GI50; param system = OVCAR-8; param query = CCOC(=O)C1(C)CCc2sc(N)c(C#N)c21 (stereo not drawn) ; response: value > 100 µM (inactive)

Param readout = GI50; param system = OVCAR-8; param query = COc1cc(C(O)c2ccc3c(c2)OCO3)cc(OC)c1OC (stereo not drawn) ; response: value > 100 µM (inactive)

Param readout = GI50; param system = OVCAR-8; param query = `O=C1c2ccccc2S[C@@H](O)[C@@H]2CCCN12` ; response: value > 100 µM (inactive)
